biological target: HLA-A*03:01; test: IEDB peptide-MHC binding, purified MHC/direct/fluorescence; filed as Kd, often an IC50 or EC50 that approximates it; bounds were set here for any values at or beyond the usual limits of such assays; settings: source organism: Vibrio vulnificus
pKd: −log10 of the molar value.
property name: pKd

Entry `YQRALHTSI` , tested on HLA-A*03:01, has a reported pKd of ≤ 4.70

---

target: HLA-B*35:01; assay: IEDB peptide-MHC binding, purified MHC/direct/fluorescence; filed as Kd, often an IC50 or EC50 that approximates it; bounds were set here for any values at or beyond the usual limits of such assays; conditions: source organism: Vibrio cholerae
property name: Kd (nM)
Number in nM, nothing else.

Form field Kd, entry `EGIEGRIAY` : 15.9

---

target: HLA-B*46:01; experiment: IEDB peptide-MHC binding, purified MHC/direct/fluorescence; filed as Kd, often an IC50 or EC50 that approximates it; bounds were set here for any values at or beyond the usual limits of such assays; conditions: source organism: Dengue virus 1 Singapore/S275/1990
property name: Kd (nM)
API: value field is a number in nM; no unit string.

Lookup result for `YLAGAGLAF` ; measured Kd: 118

---

molecular target: HLA-B*51:01; experiment: IEDB peptide-MHC binding, purified MHC/competitive/fluorescence; filed as Kd, often an IC50 or EC50 that approximates it; bounds were set here for any values at or beyond the usual limits of such assays; settings: source organism: Vibrio cholerae 2740-80
pKd: −log10 of the molar value.
property name: pKd

Lab note: measured pKd of `CERYGFPAS` was ≤ 4.70

---

target: HLA-A*02:01; test: IEDB peptide-MHC binding, purified MHC/direct/fluorescence; filed as Kd, often an IC50 or EC50 that approximates it; bounds were set here for any values at or beyond the usual limits of such assays; settings: source organism: Corynebacterium efficiens
property name: Kd

Record `VQLQEYDTY` / HLA-A*02:01, Kd recorded as ≥ 20 µM

---

biological target: HLA-A*68:01; assay: IEDB peptide-MHC binding, purified MHC/competitive/radioactivity; filed as Kd, often an IC50 or EC50 that approximates it; bounds were set here for any values at or beyond the usual limits of such assays; settings: source organism: Dengue virus 4 Philippines/H241/1956
property name: log10 Kd (log10 of the value in nM)
Answers are given as log10 of Kd in nM.

A selection of reference data follows.
- residues: "MVTFKVPHAK"
  quantitative result: 2.12
- residues: "TTAKEVALLR"
  quantitative result: 1.87
- residues: "MLVAPSYGMR"
  quantitative result: 0.88
- residues: "EGAWKHAQR"
  quantitative result: 2.06

# next sequence below
// recorded log10 Kd for `TLFVEECLR` : 1.48

---

biological target: HLA-A*26:01; test: IEDB peptide-MHC binding, purified MHC/competitive/fluorescence; filed as Kd, often an IC50 or EC50 that approximates it; bounds were set here for any values at or beyond the usual limits of such assays; conditions: source organism: Escherichia coli B171
property name: Kd

Notebook: `KAIIDTAQF` , Kd read as ≥ 20 µM

---

molecular target: HLA-A*26:01; test: IEDB peptide-MHC binding, purified MHC/competitive/fluorescence; filed as Kd, often an IC50 or EC50 that approximates it; bounds were set here for any values at or beyond the usual limits of such assays; details: source organism: Zaire ebolavirus
pKd: −log10 of the molar value.
property name: pKd

- residues: "LEARVNLSV"
  result: "≤ 4.70"

// next item, pKd requested
Please fill in: pKd reported for `LSDLCNFLV` = ≤ 4.70
